- assay-info: logP by HPLC on reversed-phase columns (C 18), method [a], acidic range pH 2.3
- Type: physicochemical
- test-context: pH 2.3, logP (pH2.3)
- Description: The logP values were determined in accordance with EEC Directive 79/831 Annex V.A8 by HPLC (High Performance Liquid Chromatography) on reversed-phase columns (C 18), using the methods below: [a] The determination is carried out in the acidic range at pH 2.3 using the mobile phases 0.1% aqueous phosphoric acid and acetonitrile, linear gradient from 10% acetonitrile to 95% acetonitrile.
Think of 3 as a floor: if chromatographic logP stands on it or above, it is rule met; beneath it, rule not met.

A selection of reference data follows.
molecule | label-value
FC(F)(F)c1cnc(Cl)nc1NC1CC1 | rule not met
COCC(O)c1cccc([N+](=O)[O-])c1 (centres unmarked) | rule not met
CC(C)Sc1cccc(Nc2ncc(Cl)c(Cl)n2)c1 | rule met
CC[S+]([O-])c1cccc(Nc2ncc(Cl)c(NC3CCC3)n2)c1 (centres unmarked) | rule not met
CC(O)c1cccc(Nc2ncc(C(F)(F)F)c(Cl)n2)c1 (centres unmarked) | rule not met

Please tell me: is the molecule CSc1cccc(Nc2ncc(C(F)(F)F)c(Cl)n2)c1 at or over 3 in terms of chromatographic logP?
rule met

Tell me whether chromatographic logP is at least 3 here: CCSC(CC)c1cccc(N)c1 (centres unmarked) [IVc-I-3, 3-[1-(Ethylsulphanyl)propyl]aniline]
rule not met

Dear colleague, could you confirm whether CCCSc1cccc(Nc2ncc(Cl)c(Cl)n2)c1 has chromatographic logP at or above 3?
rule met

chromatographic logP >= 3 for COCC(C)Oc1ccc(Nc2ncc(Br)c(NC3CC3)n2)cc1 (centres unmarked) ?
rule not met

Form field: chromatographic logP at least 3? Entry: CC(C)CCSc1cccc(Nc2ncc(Cl)c(Cl)n2)c1
rule met

Decide: is the reported value of chromatographic logP for CCC(SC)c1cccc(N)c1 (centres unmarked) [IVc-I-1, 3-[1-(Methylsulphanyl)propyl]aniline] equal to or greater than 3?
rule not met

Answer whether chromatographic logP of CCC(Cl)c1cccc([N+](=O)[O-])c1 (centres unmarked) is greater than or equal to 3.
rule met

Please indicate if the recorded chromatographic logP for CCCS(=O)(=O)c1cccc(Nc2ncc(C(F)(F)F)c(Cl)n2)c1 meets or exceeds 3.
rule met

Answer whether chromatographic logP of CC(O)c1cccc(Nc2ncc(C(F)(F)F)c(NC3CC3)n2)c1 (centres unmarked) is greater than or equal to 3.
rule not met

Given CCCS(=O)(=O)c1cccc(Nc2ncc(C(F)(F)F)c(NC3CCC3)n2)c1 , state whether its chromatographic logP is at least 3.
rule met

# bool: chromatographic logP of CC(O)c1cccc(Nc2ncc(Br)c(NC3CC3)n2)c1 (centres unmarked) >= 3
rule not met

Check this molecule for chromatographic logP at or above 3: CCSC(C)c1cccc([N+](=O)[O-])c1 (centres unmarked)
rule met

Kindly determine if chromatographic logP recorded for CC(C)CCSc1cccc(Nc2ncc(C(F)(F)F)c(Cl)n2)c1 is above or exactly 3.
rule met

----------
- assay-info: logP by LC-MS on reversed-phase columns (C 18), method [b], acidic range pH 2.7
- Format: physicochemical
- test-context: pH 2.7, log p
measured-quantity: chromatographic logP
I only need the number, thanks.

compound | test-value
CC[S+]([O-])C(C)c1cccc(Nc2ncc(Cl)c(NC3CC3)n2)c1 (centres unmarked) | 1.48
COCCOC(C)c1cccc(Nc2ncc(C(F)(F)F)c(NC3CC3)n2)c1 (centres unmarked) | 3.05
CC[S+]([O-])c1cccc(Nc2ncc(Cl)c(NC3CCC3)n2)c1 (centres unmarked) | 1.76

Okay, next one:
Fill blank: measured chromatographic logP of the compound CCC[S+]([O-])c1ccc(Nc2ncc(Cl)c(NC3CC3)n2)cc1 (centres unmarked) is ____.
1.78
